Molecular target: Human GPR40 (Homo sapiens (Human), UniProt O14842)
Sequence (O14842 whole entry): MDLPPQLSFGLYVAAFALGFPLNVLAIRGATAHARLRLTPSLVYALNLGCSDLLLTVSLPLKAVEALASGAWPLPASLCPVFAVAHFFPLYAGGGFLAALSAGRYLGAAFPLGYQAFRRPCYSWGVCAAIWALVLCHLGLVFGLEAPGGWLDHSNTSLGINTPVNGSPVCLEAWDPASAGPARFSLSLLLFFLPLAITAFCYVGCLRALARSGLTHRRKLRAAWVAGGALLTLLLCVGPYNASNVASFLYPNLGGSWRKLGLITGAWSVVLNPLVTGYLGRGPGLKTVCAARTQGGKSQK
Test: FLIPR assay, agonist-induced calcium mobilization in GPR40/CHO NFAT BLA cells
Assay type: cell-based
Description: Human and mouse GPR40 stable cell-lines were generated in CHO cells stably expressing NFAT BLA (Beta-lactamase). A human GPR40 stable cell-line was generated in HEK cells stably expressing the aequorin expressing reporter. […] FLIPR (Fluorimetric Imaging Plate Reader, Molecular Devices) assays were performed to measure agonist-induced calcium mobilization of the stable clones. […] Fluorescence output was measured using FLIPR. […]
metricName: EC50 (nM)
Please give a number only; it is taken to be in nM.

CC(c1ccccc1Cl)N1CC(COc2cccc([C@@H](CC(=O)O)C3CC3)c2)C1 (stereo partly drawn) [Example 52]
162

Ask | For the compound CC(c1cc(C(F)(F)F)ccc1C1CC1)N1CC(COc2cccc([C@@H](CC(=O)O)C3CC3)c2)C1 (stereo partly drawn) [Example 58] , give its measured EC50 value.
Reply | 113

Ask | Given O=C(O)C[C@H](c1cccc(OC2CCN(Cc3cc(C(F)(F)F)ccc3C(F)(F)F)CC2)c1)C1CC1 [Example 48] , respond with its EC50.
Reply | 142

These measurements were taken from patent US10059667B2.
